Assay: anti-His antibody binders, primary screen, artefact control for SMM control protein annotation, biochemical, small-molecule microarray, 635 nm fluorescence (AID 1128);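 note: score merges feature fluorescence with signal-to-noise for each printed compound spot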
Details: anti-His Alexa647 antibody binding, higher = more signal
Examples of compounds with documented composite z-score follow.
Lab note: jot the number down without any unit.

[[record]]
compound = "C=CCOC(=O)[C@@H]1[C@H]2C(=O)O[C@H](c3ccccc3)[C@H](c3ccccc3)N2[C@H](c2ccc(OCCOC(=O)[C@@H]3C[C@@H]4C(=O)N5CCC[C@H]5C(=O)N4[C@@H]3c3ccc(O)cc3)cc2)[C@@]12C(=O)Nc1ccc(I)cc12"
measured_number = 0.426


INPUT: # lookup: composite z-score of O=C(C1N=C(c2ccc(OCCCO)cc2)N(c2ccccc2)O1)N1CCOCC1 (stereo not drawn)
OUTPUT: 0.548

INPUT: # lookup: composite z-score of `C=C/C=C/[C@H]1C(=C)CN([C@@H](Cc2ccccc2)C(=O)OC)[C@@H]1[C@H](O)Cc1ccccc1`
OUTPUT: -0.677

###

Test: small-molecule binders of probe aInhba, primary screen, biochemical, small-molecule microarray, 635/667 nm fluorescence (AID 1148);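 note: score merges 667nm spot fluorescence with signal-to-noise for antibody binding to printed compounds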
Conditions: higher = more signal
Quantity: composite z-score
Lab note: jot the number down without any unit.

Please review the entries below; each comes with its answer.
[[record]]
compound = "CCCCCCC#C[Si](O[C@H](c1ccccc1)c1cn([C@H](CO)Cc2ccccc2)nn1)(C(C)C)C(C)C"
measured_number = -0.128

[[record]]
compound = "COc1ccc(CCNC(=O)[C@@H]2c3ccccc3C(=O)N(C3Cc4ccccc4C3)[C@H]2c2ccc(CO)cc2)cc1"
measured_number = -0.0448

[[record]]
compound = "COc1ccc(C(=O)Nc2ccc(CN3C(=O)[C@@]4(O[C@@H](CCn5cc([C@H](O)c6ccccc6)nn5)[C@H]([Si](C)(C)c5ccc(OC)cc5)[C@H]4C)c4ccccc43)cc2)cc1"
measured_number = -0.0405

[[record]]
compound = "COc1ccc([Si](C)(C)[C@H]2[C@H](CC(=O)N3CCC[C@H]3CO)O[C@@]3(C(=O)N(Cc4cccc(N5C(=O)c6cccc7cccc5c67)c4)c4ccccc43)[C@@H]2C)cc1"
measured_number = 0.392

[[record]]
compound = "COC(=O)C(CC#Cc1ccc2c(c1)[C@]1(C(=O)N2)[C@H](c2ccc(O)cc2)N2[C@H](c3ccccc3)[C@H](c3ccccc3)OC(=O)[C@H]2[C@@H]1C(=O)Nc1nc2ccccc2s1)C(=O)OC"
measured_number = 0.373


INPUT: # lookup: composite z-score of CCCCC(O)C1C=CC2C(=O)N(c3ccccc3)C(=O)C2N1Nc1ccccc1F (centres undefined)
OUTPUT: 0.297

INPUT: # lookup: composite z-score of `O=C1c2ccccc2[C@@]2(Cc3ccccc3N(CC(F)(F)F)C2=O)[C@H](c2ccc(CO)cc2)N1Cc1ccccc1Cl`
OUTPUT: -0.0256

INPUT: # lookup: composite z-score of `COCCOC(=O)N1C(=O)[C@@]2(c3cc(C#CC4=CCCCC4)ccc31)[C@H](C(=O)Nc1nc3ccccc3s1)[C@H]1C(=O)O[C@H](c3ccccc3)[C@H](c3ccccc3)N1[C@@H]2c1ccccc1OCCO`
OUTPUT: 0.973

INPUT: # lookup: composite z-score of CN1C(=O)C2C=CC(C(O)C3CC=CCC3)N(NC(=O)OC(C)(C)C)C2C1=O (centres undefined)
OUTPUT: 0.0301

INPUT: # lookup: composite z-score of `Cc1ccc(S[C@]2(C(=O)NCCN3CCOCC3)CC(=O)N(Cc3ccccc3)[C@@H]2c2ccc(CO)cc2I)cc1`
OUTPUT: -0.0719

INPUT: # lookup: composite z-score of COc1cc(CO)cc(I)c1O[C@H]1C=C(C(=O)NCCO)C[C@@H](N(CCN2CCOCC2)C(=O)C2CCOC2)[C@@H]1O (some centres undefined)
OUTPUT: -0.0195

INPUT: # lookup: composite z-score of CN1C(=O)C2C=CC(C(O)c3ccc(I)cc3)N(N3CCCCC3)C2C1=O (centres undefined)
OUTPUT: 0.303

INPUT: # lookup: composite z-score of `CC(C)C[C@@H]1NC(=O)[C@@H]2C[C@H](C(=O)NCCCCCN)[C@H](c3cccc(OCCO)c3)N2C1=O`
OUTPUT: -0.0736

INPUT: # lookup: composite z-score of `O=C(NCc1ccccc1)[C@@]1(CCS(=O)(=O)c2ccccc2)N=C(c2ccc(OCCCO)cc2)O[C@H]1c1ccccc1`
OUTPUT: 0.212

###

Molecular target: Left-right determination factor 2 (Homo sapiens) (UniProt O00292)
Sequence (O00292 whole entry, looked up): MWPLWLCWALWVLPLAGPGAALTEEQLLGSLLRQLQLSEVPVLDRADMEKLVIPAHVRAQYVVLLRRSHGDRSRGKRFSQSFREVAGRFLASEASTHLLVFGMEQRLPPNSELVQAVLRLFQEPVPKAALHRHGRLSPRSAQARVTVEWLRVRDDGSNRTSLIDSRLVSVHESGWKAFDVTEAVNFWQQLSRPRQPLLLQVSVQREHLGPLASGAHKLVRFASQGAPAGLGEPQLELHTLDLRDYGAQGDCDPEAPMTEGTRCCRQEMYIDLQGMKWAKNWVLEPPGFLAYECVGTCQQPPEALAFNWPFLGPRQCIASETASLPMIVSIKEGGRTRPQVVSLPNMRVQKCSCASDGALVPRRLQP
Assay: LEFTY2 binders on small-molecule microarrays, primary screen, biochemical, small-molecule microarray, 635 nm fluorescence scan (AID 1110)
Conditions: LEFTY2 binding, higher = more signal
Quantity: composite z-score
Lab note: jot the number down without any unit.

[[record]]
compound = "CCCC[C@@H]1C[C@H]1[C@@H](NC(=O)c1ccco1)c1ccc(Cl)cc1"
measured_target = "Left-right determination factor 2 (Homo sapiens) (UniProt O00292)"
measured_number = 0.232

[[record]]
compound = "CC1CC/C=C\\[C@H]2OC34C=CCN(Cn5nnc6ccccc65)C(=O)[C@H]3N(C(CO)C(C)C)C(=O)[C@@H]4C2C(=O)O1 (some centres undefined)"
measured_target = "Left-right determination factor 2 (Homo sapiens) (UniProt O00292)"
measured_number = -1.19


INPUT: # lookup: composite z-score of CCCCCN1CC=CC23O[C@@H]4/C=C\CCCOC(=O)C4[C@H]2C(=O)N(CCCO)[C@@H]3C1=O (some centres undefined)
OUTPUT: -0.174

INPUT: # lookup: composite z-score of `COC(=O)[C@@]1(Cc2ccc(F)cc2)[C@H]2c3cc(C(=O)N(C)C)n(CC4CC4)c3C[C@H]2CN1C(=O)c1ccccc1`
OUTPUT: 0.0265

INPUT: # lookup: composite z-score of `CC(C)C(=C=CC[C@@H](O)c1ccccc1OCCO)CCO`
OUTPUT: 0.156

INPUT: # lookup: composite z-score of `COC(=O)[C@@]1(Cc2ccccc2)[C@H]2c3cc(C(=O)N(C)C)n(CCSCCO)c3C[C@H]2CN1C(=O)c1ccccc1`
OUTPUT: -0.654

###

Molecular target: Calmodulin-1 (Homo sapiens) (UniProt P0DP23)
Test: calcium-bound CALM1 binders on microarrays, profiling panel, artefact control for SMM control-protein annotation, biochemical, small-molecule microarray, Cy5-labelled CALM1, plus calcium (AID 1112);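 note: score merges spot fluorescence with signal to noise from triplicate slides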
Settings: Cy5-CALM1 binding fluorescence, higher = more signal
Examples of compounds with documented composite z-score follow.
Lab note: jot the number down without any unit.

[[record]]
compound = "COc1ccc(COC2OC[C@]3(C)[C@H]4C5=C(CN3C(=O)OC(C)(C)C)[C@H](C)C(CO)C(CO)C5CC[C@@H]24)cc1 (some centres undefined)"
quantity = "composite z-score"
measured_number = 0.86

[[record]]
compound = "O=C1NC(=O)C2C1C=CC(C(O)Cc1ccccc1)N2Nc1ccc(Cl)cc1Cl (centres undefined)"
quantity = "composite z-score"
measured_number = 0.634

[[record]]
compound = "COc1ccc(C(=O)O[C@H]2CC[C@]3(C)C4=C(CCC3C2(C)C)[C@]2(C)CC[C@H]([C@H](C)CCCC(C)C)[C@@]2(C)CC4)cc1 (some centres undefined)"
quantity = "composite z-score"
measured_number = -0.83


Please look at the following compound next.
INPUT: # lookup: composite z-score of `CCCN1C(=O)[C@]2(CCS(=O)(=O)c3ccccc3)N=C(c3ccc(OCCCO)cc3)O[C@@H]2c2ccccc21`
OUTPUT: -0.0613

###

Tested on: glycogen synthase kinase-3 (GSK3A per assay name; protocol says GSK3B)
Assay: GSK3 binders on small-molecule microarrays, primary screen, biochemical, small-molecule microarray, 635 nm fluorescence, GSK3A (AID 1103); note: the record names both GSK3A and GSK3B
Settings: small-molecule microarray binding, fluorescence 635 nm; higher = more signal
TRUE means recorded composite z-score is -0.1 or above; FALSE means it is below -0.1.

Would you please look over these solved cases?
[[record]]
compound = "O=C1O[C@@H](c2ccccc2)[C@@H](c2ccccc2)N2[C@@H](c3ccc(OCCO)cc3)[C@]3(C(=O)Nc4ccccc43)[C@@H](C(=O)NC[C@H](O)c3ccccc3)[C@H]12"
measured_target = "glycogen synthase kinase-3 (GSK3A per assay name; protocol says GSK3B)"
answer_label = "TRUE"

[[record]]
compound = "C=C(CCCC)C(=O)CC[C@H](OC(C)=O)c1cccc(OCCO)c1"
measured_target = "glycogen synthase kinase-3 (GSK3A per assay name; protocol says GSK3B)"
answer_label = "FALSE"


INPUT: Decide: is the reported value of composite z-score for `COCC(=C=CC[C@H](O)c1ccccc1OCCO)C[C@H](O)c1cc(Cl)cc(Cl)c1O` equal to or greater than -0.1?
OUTPUT: TRUE

INPUT: Decide: is the reported value of composite z-score for CCCCN1CC=CC23O[C@@H]4/C=C\CCC(C)OC(=O)C4[C@H]2C(=O)N(CCCCCO)[C@@H]3C1=O (some centres not stated) equal to or greater than -0.1?
OUTPUT: FALSE

INPUT: Decide: is the reported value of composite z-score for `C=C/C=C/[C@H]1C(=C)CN([C@@H](Cc2ccccc2)C(=O)OC)[C@@H]1[C@H](O)Cc1ccccc1` equal to or greater than -0.1?
OUTPUT: FALSE

INPUT: Decide: is the reported value of composite z-score for `C=CCOC(=O)[C@H]1[C@@H]2C(=O)O[C@@H](c3ccccc3)[C@@H](c3ccccc3)N2[C@@H](c2ccc(OCCOC(=O)[C@H]3C[C@H]4C(=O)N5CCC[C@H]5C(=O)N4[C@H]3c3ccc(O)cc3)cc2)[C@]12C(=O)Nc1ccc(I)cc12` equal to or greater than -0.1?
OUTPUT: TRUE

INPUT: Decide: is the reported value of composite z-score for CC1CC/C=C\[C@H]2OC34C=CCN(c5ccc(Cl)cc5)C(=O)[C@H]3N(CCO)C(=O)[C@]4(C)C2C(=O)O1 (some centres not stated) equal to or greater than -0.1?
OUTPUT: FALSE
